# Test system: MS2 coat protein
# METHOD_NOTES: apparent KD of MS2 coat protein; designed switch direction (-1 OFF switch, 1 ON switch): 1; higher = weaker reporter binding
# SETTINGS: Eterna round: R95; input ligand: FMN 200 uM
Please respond with reported apparent KD of MS2 coat protein for every item in the list.
Give bare numbers, in nM.

IN: Entry GGUCCAGCCUGAGCUGGACUAUAGUAUGUACAUGAGGAUCACCCAUGUCAUGUAUAAGUAUGUUGUUUGUCUUGAAA [Sensorship 4 - Jieux - Sensor for hsa-mir-208a] (puzzle: Sensor for hsa-mir-208a) has what apparent KD of MS2 coat protein?
OUT: 23.6

IN: Try this sequence too: AGUAGGGCGUCAUAGGAUAUCCGGAAGAGUACAUGAGGAUCACCCAUGUCACUCCGCCAUGCAGAGGAGAAGGGUGGUGUUGUAC [Biedzage] (puzzle: Same State 2)
OUT: 77.6

More entries:
IN: Entry AACAAUCUAUCUGAGGAUAUCAUGAAAUAAACAUGAGGAUCACCCAUGUGCAGGAAAACUGCAUAUGAGAAGGCAGAUAGUUUGA [salish99_ss2_r3_056] (puzzle: Same State 2) has what apparent KD of MS2 coat protein?
OUT: 47.5

* * *

Please respond with reported apparent KD of MS2 coat protein for every item in the list.
# Test system: MS2 coat protein
# METHOD_NOTES: apparent KD of MS2 coat protein; designed switch direction (-1 OFF switch, 1 ON switch): 1; higher = weaker reporter binding
# SETTINGS: input ligand: none
Answers are plain numbers, in nM.

Example sequences with recorded apparent KD of MS2 coat protein:
IN: Entry GUGGUGAAUUAAGGAUAUCGAGUCAAGAUGUUAAACAUGAGGAUCACCCAUGUGGGUUGCGGUAUCGAGAAGGUAAUUUACGGG [salish99_SSNG2_r04_506] (Eterna round: R96, puzzle: Same State NG 2) has what apparent KD of MS2 coat protein?
OUT: 30.3

IN: Try this sequence too: CUGAGCAGUCAAGGAUAUCACGUCGAUUAGACGUGAGAAGGUGACCAAUACAUGAGGAUCACCCAUGUAAUACAUGAAGCUCAG [SSNG1/12-A2] (Eterna round: R96, puzzle: Same State NG 1)
OUT: 39.5

For each of the items listed, what is its apparent KD of MS2 coat protein?
1. GGCUAGGAUAUCUGCAGGAUCACCGCGGAGAAGGAGCUAAGCUAGGAUAUCCGCAGGAUCACCGCGGAGAAGGAGCAUCAUCUC [pwkr ssNG3 DX 2xF5 +2xFMN.16] (Eterna round: R96, puzzle: Same State NG 3)
2. GUGCUCGUGUGAGGAUAUGCUUCCGUUUCGGCUGCAGAAGGUACUAUUAUACAUGAGGAUCACCCAUGUCUCUUUUGUUCGGUG [salish99_SSNG1_r04_911] (Eterna round: R96, puzzle: Same State NG 1)
3. UAUAUUAUGGUAGGAUAUGUAGGAUAUGGCGAGAGCUAAGCUUGGAAGUCACUUCAGCCAGAAGGACAGAAGGACCAUAAUAUU [pwkr ssNG2 2FMN + F9.9] (Eterna round: R96, puzzle: Same State NG 2)

OUT:
[429, 58.8, 216]

* * *

# System: MS2 coat protein
# METHOD_NOTES: apparent KD of MS2 coat protein; designed switch direction (-1 OFF switch, 1 ON switch): -1; higher = weaker reporter binding
# SETTINGS: Eterna round: R95; input ligand: microRNA oligo, concentration not stated
Use 30 nM as the dividing line for apparent KD of MS2 coat protein, with the line itself on the satisfied side and lower values as not satisfied.

IN: Reported apparent KD of MS2 coat protein at or above 30 nM? GAGAAAGCAAGCAAGUGAAACAUGAGGAUCACCCAUGUCCUCAUUUGCUCGUCUUAUAAGCUAUGCGAAAGCAUAGC [Mat - Sensor v3 - turn-off var 1 - Eli Mod - D50] (puzzle: Sensor v3, turn-off variant 1)
OUT: satisfied

IN: Try this sequence too: AAUAACAGAGGAUAUACUAUUUUAUGUGUUUGUUAUUUUAAACAUGAGGAUCACCCAUGUAGAAGGCUGAAUGA [JMF 56] (puzzle: Exclusion 2)
OUT: not satisfied

IN: Try this sequence too: GAAGAGACAGGAUAUACAUGAGGAUCACCCAUGUGAGGAGGUUGGAAGCGGAGAAGGUGUAGAAGGGUCAAAGA [JR_Exclu3_Sub023] (puzzle: Exclusion 3)
OUT: satisfied

IN: Try this sequence too: UGCAUGGUAGGAUAUACGGAGCAUUAGGGUUUGUUGUGUGGACAUGAGGAUCACCCAUGUAGAAGGGCCGUGCU [JL-ex2-2.17 mat747 mod] (puzzle: Exclusion 2)
OUT: satisfied

IN: Try this sequence too: GUGAAGUGAGGAUAUACGAGAGAGGCUGAACCGGACGAGAAGUAGAAGGCACAUGAGGAUCACCCAUGUAAGGA [JR_Exclu4_Sub022] (puzzle: Exclusion 4)
OUT: satisfied

IN: Try this sequence too: AAGAAACAUGAGGAUCACCCAUGUGAGGAUAUGAAAAAGAAAAUAAAAUAAAUAAUAAUCAGAAGGCACAAAGG [Mat - Mod of Hog D6] (puzzle: Exclusion 1)
OUT: satisfied

IN: Try this sequence too: AAUAAUAAGGAGGAUAUCGUAUCGGAAACGAUACGAGAAGGCCUAACAUGAGGAUCACCCAUGUUCCUCAAUAA [Fiskers Ex 6 - 2] (puzzle: Exclusion 6)
OUT: satisfied

IN: Try this sequence too: AUUUUAAUAUAGGAUAUCGAAUUUAUUAUUUAACGAGAAGGAUAAACAUGAGGAUCACCCAUGUGGUAUCAUGG [JMFs Solution 2] (puzzle: Exclusion 6)
OUT: satisfied

IN: Try this sequence too: GAGUGACAUGAGGAUCACCCAUGUGAGGAUAUCGGACGGACCAAAUUAACAAUUUUUGCGAGAAGGCACAUCGG [Exclusion 1 V18] (puzzle: Exclusion 1)
OUT: satisfied

* * *

# System: MS2 coat protein
# METHOD_NOTES: apparent KD of MS2 coat protein; designed switch direction (-1 OFF switch, 1 ON switch): -1; higher = weaker reporter binding
# SETTINGS: input ligand: FMN 200 uM
ATTRIBUTE_MEASURED: apparent KD of MS2 coat protein (nM)
Answers are plain numbers, in nM.

IN: Param readout = apparent KD of MS2 coat protein; param system = MS2 coat protein; param query = GAAAAUGUGGAGGAUAUCGACUUCGAAAGAAGUCGAGAAGGCCACACAUGAGGAUCACCCAUGUGUUGCUUAUA [Omei Ex6 H7] (Eterna round: R97, puzzle: Exclusion 6) ; response: value
OUT: 20.7

For each of the items listed, what is its apparent KD of MS2 coat protein?
1. UCCUUACUUGAGGAUCACCCAAGUCAGGAUAUACACCAGAAUAAAUCCCAGCCCUGGCGUAGAAGGGACGGGUG [Esesle] (Eterna round: R97, puzzle: Exclusion 1)
2. AGUAGUUGUUUCCGUUCUUACAUGAGGAUCACCCAUGUUUCUUGUCGUGCUCGCGUUGCUCGUCAGACUUCCUGUUG [salish99_TOv1_r3_063] (Eterna round: R96, puzzle: Sensor v3, turn-off variant 1)
3. GCCGGGCGUGUAGGAUAUGGCCGGCGGUGCCGGCCAGAAGGACAUGAGGAUCACCCAUGUGCCGGCCUUGGGCCGGCGCCCGGC [-51, -48 kcal and 14% A] (Eterna round: R96, puzzle: Exclusion NG 1)
4. GUGUUUUAUGUAGGAUAUGCAUACUGUUAGUAUGCAGAAGGACAUGAGGAUCACCCAUGUAUAUUAUUAUUAUAUAUCAUACAU [MOD2 of Hoglahoo's Title] (Eterna round: R96, puzzle: Exclusion NG 1)
5. UACAUGAGGAUCACCCAUGUUUUGUCGUGUUUGGUACCCGUUUAGGAUAUCGUGUUAUUGGACCGCGAGAAGGAGAGUAUCUUU [Excl-NG3-LRO07] (Eterna round: R96, puzzle: Exclusion NG 3)

OUT:
23
87.5
14.9
98
31.8

IN: Param readout = apparent KD of MS2 coat protein; param system = MS2 coat protein; param query = ACAAAGCUAGGAUAUGUGGCGGAUAACAUGAGGAUCACCCAUGUGAGCUCACAGAUCCGAGCAGAAGGAGCGAUUA [EX5 A.10] (Eterna round: R97, puzzle: Exclusion 5) ; response: value
OUT: 15.3

* * *

Please respond with reported apparent KD of MS2 coat protein for every item in the list.
# System: MS2 coat protein
# METHOD_NOTES: apparent KD of MS2 coat protein, switch OFF state (with FMN for OFF switches, without FMN for ON switches); designed switch direction (-1 OFF switch, 1 ON switch): -1; higher = weaker reporter binding
# SETTINGS: FMN input: 0 or 200 uM; Eterna round: R93 (includes R88 designs)
Give bare numbers, in µM.

IN: Entry AGUCUGAGAGGAUAUACAUGAAAAAAAAAAGUAAGAUCCCUACAUGAGGAUCACCCAUGUAGAAGGCUCUGACA [Ex2 Design 145: Sub-opt 9] has what apparent KD of MS2 coat protein?
OUT: 0.0294

IN: Try this sequence too: AGCUAGUCAGGAUAUACGAAAAUGCUAGAAGACGUAAGGGAACAUGAGGAUCACCCAUGUAGAAGGGACUAGCA [Diamond 46]
OUT: 0.0304

Shift focus to the following entry.
IN: Entry CAAUCUGCAGGAUAUACAUGAGGAUCACCCAUGUAAGGACAAUAAAUAAGAAGAAGAAGUAGAAGGGCAGACAA [e3] has what apparent KD of MS2 coat protein?
OUT: 0.0292

Taken from the supplement of paper PMC9170038.
